# Test system: IFN-γ
# assay-comment: IFN-γ levels in sera upon i.v. glycolipid administration to BALB/c mice (ELISA)
# Format: in vivo
# Design: unit not given here
# condition-details: BALB/c, serum, hour 72
Kindly state IFN-γ levels, test 2 for each of the entries shown.
Answers are plain numbers.

# count of solved cases: 3
>  <compound>
CCCCCCCCCCCCCCCCCCCCCCCCCC(=O)N[C@@H](CO[C@H]1O[C@H](CO)[C@H](O)[C@H](O)[C@H]1O)[C@H](O)[C@H](O)CCCCCCCCCCCCCC [KRN, reference compound]

>  <IFN-γ levels, test 2>
36

$$$$
>  <compound>
CCCCCCCCCCCCCCCCC/C=C/CCCCCCCCC(=O)N[C@@H](CC[C@H]1O[C@H](CO)[C@H](O)[C@H](O)[C@H]1O)[C@H](O)[C@H](O)CCCCCCCCCCCCCC [A-3]

>  <IFN-γ levels, test 2>
60

$$$$
>  <compound>
CCCCCCCCCCCCCC[C@@H](O)[C@@H](O)[C@H](CC[C@H]1O[C@H](CO)[C@H](O)[C@H](O)[C@H]1O)NC(=O)CCCCCCCCCCCCCCCCCCCOCCCCC [A-5]

>  <IFN-γ levels, test 2>
58

$$$$

Could I get IFN-γ levels, test 2 for every one of these entries?
1. CCCCCCCCCCCCCC[C@@H](O)[C@@H](O)[C@H](CC[C@H]1O[C@H](CO)[C@H](O)[C@H](O)[C@H]1O)NC(=O)CCCCCCCCCCCCCCCCCCCOCCCCCC [A-4]
2. CCCCCCCCCCCCCCCCCCCCCCCCCCCCC(=O)N[C@@H](/C=C/[C@H]1O[C@H](CO)[C@H](O)[C@H](O)[C@H]1O)[C@H](O)[C@H](O)CCCCCCCCCCCCCC [A-2]
3. CCCCCCCCCCCCCCCCCC/C=C/CCCCCCCCC(=O)N[C@@H](/C=C/[C@H]1O[C@H](CO)[C@H](O)[C@H](O)[C@H]1O)[C@H](O)[C@H](O)CCCCCCCCCCCCCC [A-1]
4. CCCCCCCCCCCCCCCCCCCCCCCCCC(=O)N[C@@H](CC[C@H]1O[C@H](CO)[C@H](O)[C@H](O)[C@H]1O)[C@H](O)[C@H](O)CCCCCCCCCCCCCC [CRONY, reference compound]

a:
66
66
63
69

----------
# Test system: IL-12
# assay-comment: IL-12 levels in sera upon i.v. glycolipid administration to BALB/c mice (ELISA)
# Type: in vivo
# Set-up: unit not given here
# condition-details: serum, hour 12
# Description: Five- to six-week-old female C57BL/6 mice and BALB/c mice were purchased from Taconic. Each glycolipid was stored at 1 mg/ml in 100% DMSO. […] At indicated time points, sera were collected from each animal, and concentrations of IFN-γ, IL-4, and IL-12 in the sera were evaluated by enzyme-linked immunosorbent assay (ELISA). Serum concentrations of IFN-γ, IL-4, and IL-12 were evaluated using an ELISA kit (eBioscience, San Diego, Calif.). […]
Threshold check on IL-12 levels, test 1: strictly below 4000 is Criterion met; on or above 4000 is Criterion not met.

Reference set (5 entries):
>  <compound>
CCCCCCCCCCCCCCCCC/C=C/CCCCCCCCC(=O)N[C@@H](CC[C@H]1O[C@H](CO)[C@H](O)[C@H](O)[C@H]1O)[C@H](O)[C@H](O)CCCCCCCCCCCCCC

>  <target-entity>
IL-12

>  <label-value>
Criterion met

$$$$
>  <compound>
CCCCCCCCCCCCCCCCCCCCCCCCCC(=O)N[C@@H](CO[C@H]1O[C@H](CO)[C@H](O)[C@H](O)[C@H]1O)[C@H](O)[C@H](O)CCCCCCCCCCCCCC [KRN, reference compound]

>  <target-entity>
IL-12

>  <label-value>
Criterion met

$$$$
>  <compound>
CCCCCCCCCCCCCCCCCCCCCCCCCCCCC(=O)N[C@@H](/C=C/[C@H]1O[C@H](CO)[C@H](O)[C@H](O)[C@H]1O)[C@H](O)[C@H](O)CCCCCCCCCCCCCC

>  <target-entity>
IL-12

>  <label-value>
Criterion not met

$$$$
>  <compound>
CCCCCCCCCCCCCC[C@@H](O)[C@@H](O)[C@H](CC[C@H]1O[C@H](CO)[C@H](O)[C@H](O)[C@H]1O)NC(=O)CCCCCCCCCCCCCCCCCCCOCCCCC

>  <target-entity>
IL-12

>  <label-value>
Criterion met

$$$$
>  <compound>
CCCCCCCCCCCCCCCCCCCCCCCCCC(=O)N[C@@H](CC[C@H]1O[C@H](CO)[C@H](O)[C@H](O)[C@H]1O)[C@H](O)[C@H](O)CCCCCCCCCCCCCC [CRONY, reference compound]

>  <target-entity>
IL-12

>  <label-value>
Criterion met

$$$$

q: In plain terms, does CCCCCCCCCCCCCCCCCC/C=C/CCCCCCCCC(=O)N[C@@H](/C=C/[C@H]1O[C@H](CO)[C@H](O)[C@H](O)[C@H]1O)[C@H](O)[C@H](O)CCCCCCCCCCCCCC come in under 4000 for IL-12 levels, test 1?
a: Criterion not met

q: Threshold test, IL-12 levels, test 1 < 4000: CCCCCCCCCCCCCC[C@@H](O)[C@@H](O)[C@H](CC[C@H]1O[C@H](CO)[C@H](O)[C@H](O)[C@H]1O)NC(=O)CCCCCCCCCCCCCCCCCCCOCCCCCC
a: Criterion met

----------
Give IFN-γ levels, test 1 for every item shown.
# Test system: IFN-γ
# assay-comment: IFN-γ levels in sera upon i.v. glycolipid administration to BALB/c mice (ELISA)
# Assay type: in vivo
# Set-up: unit not given here
# condition-details: BALB/c, serum, hour 12

The following compounds have reported results that may help.
>  <compound>
CCCCCCCCCCCCCCCCCCCCCCCCCC(=O)N[C@@H](CO[C@H]1O[C@H](CO)[C@H](O)[C@H](O)[C@H]1O)[C@H](O)[C@H](O)CCCCCCCCCCCCCC [KRN, reference compound]

>  <experimental-value>
7996

$$$$
>  <compound>
CCCCCCCCCCCCCCCCCCCCCCCCCCCCC(=O)N[C@@H](/C=C/[C@H]1O[C@H](CO)[C@H](O)[C@H](O)[C@H]1O)[C@H](O)[C@H](O)CCCCCCCCCCCCCC

>  <experimental-value>
7529

$$$$
>  <compound>
CCCCCCCCCCCCCCCCCCCCCCCCCC(=O)N[C@@H](CC[C@H]1O[C@H](CO)[C@H](O)[C@H](O)[C@H]1O)[C@H](O)[C@H](O)CCCCCCCCCCCCCC [CRONY, reference compound]

>  <experimental-value>
6314

$$$$
>  <compound>
CCCCCCCCCCCCCC[C@@H](O)[C@@H](O)[C@H](CC[C@H]1O[C@H](CO)[C@H](O)[C@H](O)[C@H]1O)NC(=O)CCCCCCCCCCCCCCCCCCCOCCCCCC

>  <experimental-value>
4988

$$$$

Please supply IFN-γ levels, test 1 for each of the following items, keeping them in order.
1. CCCCCCCCCCCCCCCCCC/C=C/CCCCCCCCC(=O)N[C@@H](/C=C/[C@H]1O[C@H](CO)[C@H](O)[C@H](O)[C@H]1O)[C@H](O)[C@H](O)CCCCCCCCCCCCCC
2. CCCCCCCCCCCCCCCCC/C=C/CCCCCCCCC(=O)N[C@@H](CC[C@H]1O[C@H](CO)[C@H](O)[C@H](O)[C@H]1O)[C@H](O)[C@H](O)CCCCCCCCCCCCCC
3. CCCCCCCCCCCCCC[C@@H](O)[C@@H](O)[C@H](CC[C@H]1O[C@H](CO)[C@H](O)[C@H](O)[C@H]1O)NC(=O)CCCCCCCCCCCCCCCCCCCOCCCCC

a:
1. 4881
2. 3891
3. 4018

----------
# System: IL-4
# assay-comment: IL-4 levels in sera upon i.v. glycolipid administration to C57BL/6 mice (ELISA)
# Type: in vivo
# Set-up: unit not given here
# condition-details: hour 2
So I've got a bunch of compounds here, and I need their IL-4 level, test 2 values.
Numbers only.

>  <compound>
CCCCCCCCCCCCCCCCCCCCCCCCCC(=O)N[C@@H](CC[C@H]1O[C@H](CO)[C@H](O)[C@H](O)[C@H]1O)[C@H](O)[C@H](O)CCCCCCCCCCCCCC [CRONY, reference compound]

>  <target-entity>
IL-4

>  <experimental-value>
642

$$$$
>  <compound>
CCCCCCCCCCCCCCCCC/C=C/CCCCCCCCC(=O)N[C@@H](CC[C@H]1O[C@H](CO)[C@H](O)[C@H](O)[C@H]1O)[C@H](O)[C@H](O)CCCCCCCCCCCCCC [A-3]

>  <target-entity>
IL-4

>  <experimental-value>
754

$$$$

Please turn your attention to the following entry.
q: Return IL-4 level, test 2 for the following compound: CCCCCCCCCCCCCCCCCCCCCCCCCC(=O)N[C@@H](CO[C@H]1O[C@H](CO)[C@H](O)[C@H](O)[C@H]1O)[C@H](O)[C@H](O)CCCCCCCCCCCCCC [KRN, reference compound]
a: 4246
